cell scattering score, MLP29, 0.111 nM values by entry
Study target: native mouse MET on living mouse cells (mouse, UniProt P16056 25-1379)
Measurement notes: cell-based or functional assay
Report the value in score 0-4 with no unit label.

Binder: chimeric llama-human IgG1 mAb 74C8 (antibody, V domains shown) VH: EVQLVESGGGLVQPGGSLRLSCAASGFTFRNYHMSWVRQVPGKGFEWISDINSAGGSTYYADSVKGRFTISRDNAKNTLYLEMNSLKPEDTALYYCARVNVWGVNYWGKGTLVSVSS VL: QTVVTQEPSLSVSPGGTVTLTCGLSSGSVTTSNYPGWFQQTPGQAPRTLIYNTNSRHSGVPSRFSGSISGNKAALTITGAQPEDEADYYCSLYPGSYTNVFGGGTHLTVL
cell scattering score, MLP29, 0.111 nM (score 0-4): 2

Field: next binder
Specify measured cell scattering score, MLP29, 0.111 nM for chimeric llama-human IgG1 mAb 71G3 (antibody, V domains shown) VH: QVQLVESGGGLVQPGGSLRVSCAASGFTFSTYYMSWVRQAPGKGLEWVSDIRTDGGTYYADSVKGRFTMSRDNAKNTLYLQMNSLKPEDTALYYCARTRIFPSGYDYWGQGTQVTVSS VL: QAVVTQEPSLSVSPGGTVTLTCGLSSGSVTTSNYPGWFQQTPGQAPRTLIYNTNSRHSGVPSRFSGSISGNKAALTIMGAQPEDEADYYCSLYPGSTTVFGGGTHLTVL .
2
